- Tested on: mushroom tyrosinase
- measurementDescription: Inhibition kinetics by Lineweaver-Burk plots
- Type: biochemical
- testParameters: oxidation of L-DOPA
endpointLabel: inhibition type

compound	assayValue
COc1cc(C=C2CCC(=Cc3ccc(O)c(O)c3)C2=O)ccc1O [Compound 3i]	mixed-competitive
COc1cc(C=C2CCC(=Cc3ccc(O)cc3O)C2=O)ccc1O [Compound 3j]	competitive
O=C1C(=Cc2ccc(O)cc2)CCC1=Cc1ccc(O)cc1O [Compound 3d]	competitive
O=C1C(=Cc2ccc(O)cc2)CCC1=Cc1ccc(O)c(O)c1 [Compound 3c]	mixed-competitive

###

- measuredTarget: mushroom tyrosinase
- measurementDescription: Diphenolase inhibitory activity of mushroom tyrosinase (L-DOPA oxidation, spectrophotometric)
- testParameters: L-DOPA 0.5 mM, pH 6.8, 25 °C
- Experimental: UCAs 3a–k, 4a–i were subjected to tyrosinase inhibitory assays by measuring the oxidation of L-DOPA according to the literature protocol. The spectrophotometric assay for tyrosinase was performed according to the reported method with slight modifications. […] L-DOPA (0.5 mM) was then added to the reaction mixture and the enzyme reaction was monitored by measuring the change in absorbance at 475 nm of the formation of L-DOPA chrome for 1 min. […]
pIC50: −log10 of the molar value.
Dear colleague, classification is by pIC50, with ranges listed here: lower bin (below 4), middle bin (4 to below 5), upper bin (5 or more)

Hey, which category is COc1cc(C=CC(=O)C=Cc2ccc(O)cc2)ccc1O in, do you know?
middle bin

Queued: O=C(C=Cc1ccc(O)cc1)C=Cc1ccc(O)c(O)c1
upper bin

Queued: O=C(C=Cc1ccc(O)cc1)C=Cc1cc(Br)c(O)c(Br)c1
lower bin

Queued: COc1ccc(C=C2CCC(=Cc3ccc(O)cc3)C2=O)cc1
lower bin

Queued: COc1cc(C=C2CCC(=Cc3cc(OC)c(O)c(OC)c3)C2=O)ccc1O
lower bin

Queued: O=C1C(=Cc2ccc(O)cc2)CCC1=Cc1ccc(O)cc1O
upper bin

Queued: COc1cc(C=C2CCC(=Cc3ccc(O)cc3)C2=O)cc(Br)c1O
lower bin

Queued: O=C1C(=Cc2ccc(O)cc2)CCC1=Cc1cc(Br)c(O)c(Br)c1
lower bin

Queued: COc1ccc(C=CC(=O)C=Cc2ccc(O)cc2)cc1
lower bin

Queued: CC(C)(C)c1cc(C=C2CCC(=Cc3ccc(O)cc3)C2=O)cc(C(C)(C)C)c1O
lower bin

Queued: COc1cc(C=C2CCC(=Cc3ccc(O)cc3)C2=O)ccc1O
middle bin

###

endpointLabel: melting point

Form field: reported melting point of CC(C)(C)c1cc(C=C2CCC(=Cc3ccc(O)cc3)C2=O)cc(C(C)(C)C)c1O [Compound 3f]
233 to 235 °C

Queued: COc1cc(C=C2CCC(=Cc3ccc(O)cc3)C2=O)ccc1O [Compound 3b]
278 to 280 °C

Queued: COc1cc(C=CC(=O)C=Cc2ccc(O)cc2)ccc1O [Compound 4b]
98 to 101 °C

Queued: COc1cc(C=CC(=O)C=Cc2ccc(O)cc2)cc(OC)c1O [Compound 4d]
93 to 95 °C

Queued: O=C(C=Cc1ccc(O)cc1)C=Cc1cc(Br)c(O)c(Br)c1 [Compound 4e]
110 to 113 °C

Queued: COc1cc(C=C2CCC(=Cc3cc(OC)c(O)c(OC)c3)C2=O)ccc1O [Compound 3k]
129 to 131 °C

Queued: O=C(C=Cc1ccc(O)cc1)C=Cc1ccc(O)c(O)c1 [Compound 4c]
181 to 183 °C

Queued: COc1cc(C=C2CCC(=Cc3ccc(O)cc3)C2=O)cc(OC)c1O [Compound 3e]
259 to 261 °C

Queued: COc1ccc(C=C2CCC(=Cc3ccc(O)cc3)C2=O)cc1 [Compound 3a]
241 to 243 °C

Queued: COc1cc(C=C2CCC(=Cc3ccc(O)c(O)c3)C2=O)ccc1O [Compound 3i]
> 300 °C

Queued: COc1cc(C=C2CCC(=Cc3ccc(O)cc3)C2=O)cc(Br)c1O [Compound 3g]
241 to 243 °C

Queued: O=C1C(=Cc2ccc(O)cc2)CCC1=Cc1cc(Br)c(O)c(Br)c1 [Compound 3h]
286 to 288 °C

Queued: COc1ccc(C=CC(=O)C=Cc2ccc(O)cc2)cc1 [Compound 4a]
114 to 116 °C

Queued: O=C1C(=Cc2ccc(O)cc2)CCC1=Cc1ccc(O)c(O)c1 [Compound 3c]
> 300 °C

###

Please provide measured pIC50 for the entries that follow.
- measuredTarget: mushroom tyrosinase
- measurementDescription: Diphenolase inhibitory activity of mushroom tyrosinase (L-DOPA oxidation, spectrophotometric)
- testParameters: L-DOPA 0.5 mM, pH 6.8, 25 °C
For clarity, pIC50 is expressed as the negative log10 of concentration in mol/L.

Notebook: pull reported pIC50 for mushroom tyrosinase, entry COc1cc(C=C2CCC(=Cc3ccc(O)cc3)C2=O)cc(OC)c1O [Compound 3e]
5.02

Queued: CCCCc1ccc(O)cc1O [4-Butylresorcinol, reference compound]
4.95

Queued: COc1cc(C=CC(=O)C=Cc2ccc(O)cc2)cc(OC)c1O [Compound 4d]
5.14

Queued: O=C1C(=Cc2ccc(O)cc2)CCC1=Cc1ccc(O)c(O)c1 [Compound 3c]
5.11
